meta.source: patent US20060264460A1

Biological target: human Cot/Tpl2 kinase (Homo sapiens, UniProt P41279)
Construct: human Cot/Tpl2 kinase construct encoding residues 30-398; 6His (N); made in house; host or cells: Sf9 insect cells, baculovirus system (BD Biosciences)
Sequence (P41279 30-398): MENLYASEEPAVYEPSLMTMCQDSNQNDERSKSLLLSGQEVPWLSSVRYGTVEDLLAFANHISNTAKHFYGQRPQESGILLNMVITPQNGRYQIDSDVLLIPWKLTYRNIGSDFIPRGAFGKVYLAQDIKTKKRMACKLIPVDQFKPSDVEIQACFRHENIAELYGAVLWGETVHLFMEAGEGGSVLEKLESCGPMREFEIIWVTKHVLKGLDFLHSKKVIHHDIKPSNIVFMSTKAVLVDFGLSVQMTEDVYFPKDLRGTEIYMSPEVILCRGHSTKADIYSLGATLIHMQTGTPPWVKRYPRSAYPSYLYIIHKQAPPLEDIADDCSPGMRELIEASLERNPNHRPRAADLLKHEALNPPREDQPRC
Assay: Tpl2/Cot kinase assay: GST-MEK1 phosphorylation detected by ELISA (DELFIA Eu)
Type: biochemical
Details: 0.4 nM Tpl2, 35 nM GST-MEK1, 50 uM ATP, 1 h at 30° C.
Method: Sf9 cells expressing the kinase were lysed in 50 mM NaPhosphate pH=8; 300 mM NaCl; 5 mM imidazole; 0.1 mM EGTA; 25 mM beta-glycerophosphate; 1% TX-100, 1% glycerol; 6 mM beta-mercaptoethanol and protease inhibitors. […] Tpl2/Cot activity was directly assayed using GST-MEK1 as a substrate. GST-MEK1 phosphorylation on serine residues 217 and 221 was detected by ELISA. […] After a final wash, Eu detection solution was added to each well and the Eu signal was measured in a Wallac Victor^2 Multilabel Counter. […]
measured parameter: IC50 (nM)

| chem smiles | quantity unit | IC50 |
| --- | --- | --- |
| N#Cc1cnc2c(Cl)cc(NCc3cn(C4CCC5(CC4)OCCO5)nn3)cc2c1Nc1ccc(F)c(Cl)c1 | nM | 39 |
| N#Cc1cnc2c(Br)cc(NCc3cn(-c4ccc(C(=O)O)cc4)nn3)cc2c1Nc1ccc(F)c(Cl)c1 | nM | 3.5 |
| CS(=O)(=O)c1cccc(CNc2ccc3ncc(C#N)c(Nc4ccc(F)c(Cl)c4)c3c2)c1 | nM | 28 |
| CN(C)Cc1ccc2cc(CNc3ccc4ncc(C#N)c(Nc5ccc(F)c(Cl)c5)c4c3)[nH]c2c1 | nM | 2500 |
| N#Cc1cnc2ccc(NCc3cccc(C(F)(F)F)c3)cc2c1Nc1ccc(F)c(Cl)c1 | nM | 1500 |

(I) Cc1cc(NCCN2CCOCC2)cc2c(Nc3cccc(Br)c3)c(C#N)cnc12
(II) N#Cc1cnc2c(Cl)cc(NCCn3ccnn3)cc2c1Nc1ccc(F)c(Cl)c1
-- ask Select one: I or II . Criterion: greater recorded IC50. Write down the label of the entry you select.
-- reply I
